- Test system: colistin resistant MCR (−) E. Coli strains
- test protocol: Synergy study: colistin MIC in the presence of compound
- Format: cell-based
- condition label: strain 7033607097, MCR(−); compound at 5 μg (Table 2a: 5 ug/ml)
Would you kindly list Colistin MIC in the presence of the compound for each of these compounds?
Please give a number only; it is taken to be in µg/mL.

Item under review: "CCN(CC)CCOc1ccc(/C=C/C(=O)c2ccc(OCCN(CC)CC)c(CC=C(C)C)c2O)cc1" . Reported Colistin MIC in the presence of the compound?
0.195

Next entry: "CCN(CC)CCCCOc1ccc(/C=C/C(=O)c2ccc(OCCCCN(CC)CC)c(CC=C(C)C)c2O)cc1"
0.195

Repeat with "CC(C)=CCc1c(OCCCN2CCNCCNCCNCC2)ccc(C(=O)/C=C/c2ccc(OCCCN3CCNCCNCCNCC3)cc2)c1O"
0.39

Quick one: "O=C(C=Cc1ccc(OCCCCN2CCNCCNCCNCC2)cc1)c1ccc(OCCCCN2CCNCCNCCNCC2)cc1O.[Cl][Zn][Cl].[Cl][Zn][Cl]"
3.125

// repeat for "CC(C)=CCc1c(OCCCCN(CCCN(C)C)CCCN(C)C)ccc(C(=O)/C=C/c2ccc(OCCCCN(CCCN(C)C)CCCN(C)C)cc2)c1O" and report
0.195

Next record, please: "CCN(CC)CCCOc1ccc(/C=C/C(=O)c2ccc(OCCCN(CC)CC)c(CC=C(C)C)c2O)cc1"
0.39

---

- Tested on: colistin resistant MCR (−) E. Coli strains
- test protocol: Synergy study: colistin MIC in the presence of compound
- Assay type: cell-based
- condition label: strain 7033607097, MCR(−); compound at 2 μg
Would you mind telling me the reported Colistin MIC in the presence of the compound of each entry?

Identify the measured Colistin MIC in the presence of the compound of "CC(C)=CCc1c(OCCN(C)CCCN(C)C)ccc(C(=O)/C=C/c2ccc(OCCN(C)CCCN(C)C)cc2)c1O" for colistin resistant MCR (−) E. Coli strains.
1.56 µg/mL

Same read-out for "CC(C)=CCc1c(OCCCC[n+]2ccn(C)c2)ccc(C(=O)/C=C/c2ccc(OCCCC[n+]3ccn(C)c3)cc2)c1O" ?
0.195 µg/mL

Here is the next molecule: "CC(C)=CCc1c(OCCCCC[N+](C)(C)C)ccc(C(=O)/C=C/c2ccc(OCCCCC[N+](C)(C)C)cc2)c1O"
0.195 µg/mL

Another molecule to check: "CCN(CC)CCCCOc1ccc(/C=C/C(=O)c2ccc(OCCCCN(CC)CC)c(CC=C(C)C)c2O)cc1"
<0.0975 µg/mL

Also check "CC(C)=CCc1c(OCCCC[n+]2ccccc2)ccc(C(=O)/C=C/c2ccc(OCCCC[n+]3ccccc3)cc2)c1O"
0.195 µg/mL

---

Assignment: determine reported Colistin MIC in the presence of the compound for the given compounds.
- System: colistin resistant MCR (+) E. Coli strains
- test protocol: Synergy study: colistin MIC in the presence of compound
- Type: cell-based
- condition label: strain 6075066346, MCR(+); compound at 10 μg (Table 2a: 10 ug/ml)
The figure you give is taken to be in mg/L; do not add the unit.

# input compound: CN(C)CCCN(CCCCOc1ccc(C2COc3c(ccc4c3C=CC(C)(C)O4)C2)c(OCCCCN(CCCN(C)C)CCCN(C)C)c1)CCCN(C)C (centres unmarked) ; wanted: its Colistin MIC in the presence of the compound
3.125

"CCN(CC)CCCCOc1ccc(/C=C/C(=O)c2ccc(OCCCCN(CC)CC)cc2O)cc1" , same question.
3.125

Moving on to the next compound: "Cc1cc(OCCCCC[N+](C)(C)C)cc(OCCCCC[N+](C)(C)C)c1"
6.25

Now this one: CC1(C)C=Cc2c(ccc3c2OCC(c2ccc(OCCCC[n+]4ccccc4)cc2OCCCC[n+]2ccccc2)C3)O1 (centres unmarked)
0.195

---

- Tested on: colistin resistant MCR (+) E. Coli strains
- test protocol: MIC, broth microdilution, compound alone
- Assay type: cell-based
- condition label: strain 6123520276, MCR (+); compound alone
Friendly reminder: MIC below 10 µg/mL is yes, at or above is no.

# check: MIC < 10 µg/mL for COC(=O)C(CCCNC(=N)N)NC(=O)COc1ccc(C2COc3c(ccc4c3C=CC(C)(C)O4)C2)c(OCC(=O)NC(CCCNC(=N)N)C(=O)OC)c1 (stereo not shown) [LC106]
no

Another compound: CC1(C)C=Cc2c(ccc3c2OCC(c2ccc(OCCCCC[N+](C)(C)C)cc2OCCCCC[N+](C)(C)C)C3)O1 (stereo not shown) [LC316]
no

Same question for O=C(C=Cc1ccc(OCCCCN2CCNCCNCCNCC2)cc1)c1ccc(OCCCCN2CCNCCNCCNCC2)cc1O.[Cl][Zn][Cl].[Cl][Zn][Cl] [LC304] please.
no

Consider next the compound CCN(CC)CCCCOc1ccc(/C=C/C(=O)c2ccc(OCCCCN(CC)CC)c(CC=C(C)C)c2O)cc1 [LC100] in the same way.
no

Same again, this time with CC(C)=CCc1c(OCCCCC[N+](C)(C)C)ccc(C(=O)/C=C/c2ccc(OCCCCC[N+](C)(C)C)cc2)c1O [LC311]
yes

For CC(C)=CCc1c(OCC(=O)NC(CCCNC(=N)N)C(N)=O)ccc(C(=O)/C=C/c2ccc(OCC(=O)NC(CCCNC(=N)N)C(N)=O)cc2)c1O (stereo not shown) [LC131] then?
no

Queued: CC(C)=CCc1c(OCCCC[n+]2ccn(C)c2)ccc(C(=O)/C=C/c2ccc(OCCCC[n+]3ccn(C)c3)cc2)c1O [LC350]
yes

Repeat with CC(C)=CCc1c(OCCCC[n+]2ccccc2)ccc(C(=O)/C=C/c2ccc(OCCCC[n+]3ccccc3)cc2)c1O [LC365]
yes

Ok, now Cc1cc(OCCCCC[N+](C)(C)C)cc(OCCCCC[N+](C)(C)C)c1 [LC310]
no

What do you get for COC(=O)C(CCCNC(=N)N)NC(=O)COc1ccc(/C=C/C(=O)c2ccc(OCC(=O)NC(CCCNC(=N)N)C(=O)OC)c(CC=C(C)C)c2O)cc1 (stereo not shown) [LC101] ?
no

What about this compound? CCN(CC)CCCCOc1ccc(/C=C/C(=O)c2ccc(OCCCCN(CC)CC)cc2O)cc1 [LC107]
no

And the next one, Cc1cc(OCCCCN(Cc2ccccn2)Cc2ccccn2)cc(OCCCCN(Cc2ccccn2)Cc2ccccn2)c1.[Cl][Zn][Cl].[Cl][Zn][Cl] [Orc-DPA-Zn] ?
no

Input CCN(CC)CCCCOc1ccc(C2COc3c(ccc4c3C=CC(C)(C)O4)C2)c(OCCCCN(CC)CC)c1 (stereo not shown) [LC105]
no

What do you get for CC[N+](CC)(CC)CCCCOc1ccc(C2COc3c(ccc4c3C=CC(C)(C)O4)C2)c(OCCCC[N+](CC)(CC)CC)c1 (stereo not shown) [LC317] ?
no

// next record CN(C)CCCN(CCCCOc1ccc(C2COc3c(ccc4c3C=CC(C)(C)O4)C2)c(OCCCCN(CCCN(C)C)CCCN(C)C)c1)CCCN(C)C (stereo not shown) [LC095]
no

Then this compound: CC(C)=CCc1c(OCCC[N+](C)(C)C)ccc(C(=O)/C=C/c2ccc(OCCC[N+](C)(C)C)cc2)c1O [LC312]
no

---

- Test system: various pathogens
- test protocol: organism not typed
- Type: cell-based
- condition label: PAE DM 23376
Consider the following compounds; for each one, report its MIC.
Provide the reading as a plain figure in µg/mL.

I'd like to know its MIC. The compound in question is C[C@@H](O)[C@H]1C(=O)N2C(C(=O)O)=C(SCCN=CN)C[C@H]12 [Imipenem]
1.56

Do the same for C[C@@H](O)[C@H]1C(=O)N2C(C(=O)O)=C(S[C@@H]3CN[C@H](C(=O)N(C)C)C3)[C@H](C)[C@H]12 [meropenem] please
0.39

Now the compound C[C@@H](O)[C@H]1C(=O)N2C(C(=O)O)=C(S[C@@H]3CN[C@H](CNS(N)(=O)=O)C3)[C@H](C)[C@H]12 [Doripenem]
0.78

Please do the same for COc1c(N2CCNC(C)C2)c(F)cc2c(=O)c(C(=O)O)cn(C3CC3)c12 (centres unmarked) [Gatifloxacin] as well.
1.56

---

Consider the following molecules; for each one, report its Colistin MIC in the presence of the compound.
- Test system: colistin resistant MCR (−) E. Coli strains
- test protocol: Synergy study: colistin MIC in the presence of compound
- Assay type: cell-based
- condition label: strain 7033607097, MCR(−); compound at 5 μg (Table 2a: 5 ug/ml)
Write the value in µg/mL as a bare number.

Recorded Colistin MIC in the presence of the compound of CC(C)=CCc1c(OCCCCN(C)CCCN(C)C)ccc(C(=O)/C=C/c2ccc(OCCCCN(C)CCCN(C)C)cc2)c1O [LC098] , please.
0.195

// same read-out, input: CC1(C)C=Cc2c(ccc3c2OCC(c2ccc(OCCCCC[N+](C)(C)C)cc2OCCCCC[N+](C)(C)C)C3)O1 (stereo not shown) [LC316]
1.56
